FYI, the data here is from ChEMBL document CHEMBL1833929.

Could you please report measured pIC50 for the items listed next?
Experiment: Cytotoxicity against human MCF7/ADR cells after 24 hrs by MTT assay
Assay type: functional, cell-based
Conditions: NCI/ADR-RES
Numbers only, as −log10 of the molar value.

INSERT INTO measurements (molecule, recorded_endpoint, experimental_result) VALUES
  ('COc1cc2c(c3c1c(=O)c1cccnc1n3C)C[C@H]([C@]1(C)CO1)O2 (racemic)', 'pIC50', 5.66);

Next up:
**Query** Specify measured pIC50 for COc1cc2c(c3c1c(=O)c1cccnc1n3C)C[C@H]([C@@]1(C)CO1)O2 (racemic) .
**Result** 6.31

----------
Assay: Cytotoxicity against human MCF7/ADR cells after 48 hrs by MTT assay
Assay type: functional, cell-based
Conditions: NCI/ADR-RES
Recorded endpoint: IC50

INSERT INTO measurements (molecule, experimental_result) VALUES
  ('COc1cccc2c1C(=O)c1c(O)c3c(c(O)c1C2=O)C[C@@](O)(C(=O)CO)C[C@@H]3O[C@H]1C[C@H](N)[C@H](O)[C@H](C)O1', '13600 nM'),
  ('COc1cc2c(c3c1c(=O)c1cccnc1n3C)C[C@H]([C@@]1(C)CO1)O2 (racemic)', '150 nM');

**Query** Specify measured IC50 for COc1cc2c(c3c1c(=O)c1cccnc1n3C)C[C@H]([C@]1(C)CO1)O2 (racemic) .
**Result** 920 nM

----------
System: MCF7
Experiment: Cytotoxicity against estrogen receptor-positive human MCF7 cells after 48 hrs by MTT assay
Type: functional, cell-based
Settings: MCF7, 48 h
Could you please report measured IC50 for the items listed next?
Numbers only, in nM.

INSERT INTO results (molecule, recorded_endpoint, experimental_result) VALUES
  ('COc1cc2c(c3c1c(=O)c1cccnc1n3C)C[C@H]([C@@]1(C)CO1)O2 (racemic)', 'IC50', 260);

Next up:
**Query** Specify measured IC50 for COc1cc2c(c3c1c(=O)c1cccnc1n3C)C[C@H]([C@]1(C)CO1)O2 (racemic) .
**Result** 1020
